- EXPERIMENTAL DETAILS: Metabolic stability in mouse liver microsome assessed as half life at 1 uM measured upto 60 mins in presence of NADPH by LC-MS/MS analysis
- Type: ADME
- CONDITIONS: liver microsomes
READOUT KIND: half-life at 1 µM
State the value with its unit after it.

Inquiry: Which half-life at 1 µM is listed for `CC(C)(N)C(=O)N[C@H](COCc1ccccc1)C(=O)N1CCC2=NN(C3CC3)C(=O)[C@]2(Cc2ccccc2)C1` ?
Reply text: 4.2 min

###

- EXPERIMENTAL DETAILS: Metabolic stability in dog liver microsome assessed as hepatic clearance at 1 uM measured upto 60 mins in presence of NADPH by LC-MS/MS analysis
- Format: ADME, Canis lupus familiaris
- CONDITIONS: liver microsomes, read-out: CLH
READOUT KIND: CLint scaled at 1 µM (mL/min/kg)
Give bare numbers, in mL/min/kg.

Inquiry: Which CLint scaled at 1 µM is listed for `CC(C)(N)C(=O)N[C@H](COCc1ccccc1)C(=O)N1CCC2=NN(C3CC3)C(=O)[C@]2(Cc2ccccc2)C1` ?
Reply text: 237
